experimental_system: CDK7/Cyclin H/MAT1 (Homo sapiens, UniProt P50613)
Construct: made in house; host or cells: insect cell
Sequence (P50613 whole entry): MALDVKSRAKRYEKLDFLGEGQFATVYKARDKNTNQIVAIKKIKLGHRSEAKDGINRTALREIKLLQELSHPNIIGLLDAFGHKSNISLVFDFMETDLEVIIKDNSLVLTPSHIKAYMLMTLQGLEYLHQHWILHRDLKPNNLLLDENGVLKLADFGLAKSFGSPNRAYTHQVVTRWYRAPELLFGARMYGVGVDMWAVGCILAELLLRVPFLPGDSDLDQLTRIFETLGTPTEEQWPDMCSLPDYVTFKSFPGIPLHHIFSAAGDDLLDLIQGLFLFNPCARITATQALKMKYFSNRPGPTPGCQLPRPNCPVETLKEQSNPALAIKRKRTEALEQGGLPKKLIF
Sequence (P51946 whole entry partner): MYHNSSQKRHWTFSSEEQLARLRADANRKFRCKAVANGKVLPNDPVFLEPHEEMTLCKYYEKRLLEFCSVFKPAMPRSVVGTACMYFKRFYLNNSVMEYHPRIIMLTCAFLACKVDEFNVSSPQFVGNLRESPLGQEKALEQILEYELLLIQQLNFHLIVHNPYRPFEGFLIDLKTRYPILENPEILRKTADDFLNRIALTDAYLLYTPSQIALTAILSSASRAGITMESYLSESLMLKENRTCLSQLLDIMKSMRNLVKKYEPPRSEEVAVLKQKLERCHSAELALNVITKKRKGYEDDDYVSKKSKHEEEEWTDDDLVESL
Sequence (P51948 whole entry partner): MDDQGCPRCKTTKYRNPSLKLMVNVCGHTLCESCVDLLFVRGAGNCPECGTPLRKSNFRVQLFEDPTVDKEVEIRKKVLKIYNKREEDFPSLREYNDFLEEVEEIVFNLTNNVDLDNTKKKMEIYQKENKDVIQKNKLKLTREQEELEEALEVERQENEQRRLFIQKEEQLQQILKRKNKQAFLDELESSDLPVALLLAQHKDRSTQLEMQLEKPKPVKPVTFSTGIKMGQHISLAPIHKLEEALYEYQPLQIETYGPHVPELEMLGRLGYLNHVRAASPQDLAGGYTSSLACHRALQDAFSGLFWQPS
test: CDK kinase activity mobility shift assay (MSA)
Type: biochemical
condition: The CDK may be CDK7; mobility shift assay, 2 mM ATP, 3 nM CDK/Cyclin, 27° C. for 40 min; read-out: IC50 (CDK inhibition)
pIC50: −log10 of the molar value. Where a name gives a salt, the structure may show the parent alone.
Listed next: entries and their corresponding pIC50.

## Input Give me measured pIC50, please, for this molecule: CC(C)n1cnc2c(NCc3ccccc3-n3cccn3)nc(N3CCC(CN)C3)nc21 (stereo not shown)
## Output 6.30 to 7.00

## Input Give me measured pIC50, please, for this molecule: CC(C)n1cnc2c(NCc3ccccc3-n3cccn3)nc(NC3CN4CCC3CC4)nc21 (stereo not shown)
## Output 6.30 to 7.00

## Input Give me measured pIC50, please, for this molecule: `CC(C)n1cnc2c(NCc3ccccc3-n3cccn3)nc(N3CCC(C(N)=O)CC3)nc21`
## Output 6.30 to 7.00

## Input Give me measured pIC50, please, for this molecule: CC(C)n1cnc2c(NCc3ccccc3-n3cccn3)nc(N3CCC(C4CCNCC4)CC3)nc21 [Compound I-5, hydrochloride]
## Output 6.30 to 7.00

## Input Give me measured pIC50, please, for this molecule: `CC(C)n1cnc2c(NCc3ccccc3-c3ccnn3C)nc(N3CCC(N)CC3)nc21`
## Output > 7.00

## Input Give me measured pIC50, please, for this molecule: `CC(C)n1cnc2c(NCc3ccccc3-n3cccn3)nc(NC(=O)C3CCNCC3)nc21`
## Output < 6.00

Now look at this entry.
## Input Give me measured pIC50, please, for this molecule: CC(C)N1CCN(c2ccn(-c3ccccc3CNc3nc(N4CCC(N)CC4)nc4c3ncn4C(C)C)n2)CC1 [Compound I-4, hydrochloride]
## Output > 7.00

====

Listed next: entries and their corresponding IC50.
experimental_system: CDK7/Cyclin H/MAT1 (Homo sapiens)
Construct: made in house; host or cells: insect cell
test: CDK kinase activity mobility shift assay (MSA)
Type: biochemical
condition: The CDK may be CDK7; mobility shift assay, 2 mM ATP, 3 nM CDK/Cyclin, 27° C. for 40 min; read-out: IC50 (CDK inhibition)

Some solved cases for reference:
## Input Give me measured IC50, please, for this molecule: `CC(C)n1cnc2c(NCc3ccccc3-n3cccn3)nc(N3CCC(O)(CN(C)C)CC3)nc21`
## Output 100 to 500 nM

## Input Give me measured IC50, please, for this molecule: `CC(C)n1cnc2c(NCc3ccccc3-n3ccc(C(=O)N4CCN(C)CC4)n3)nc(N3CCC(N)CC3)nc21`
## Output < 100 nM

---
## Input Give me measured IC50, please, for this molecule: `CC(C)n1cnc2c(NCc3ccccc3-n3ccc(CO)n3)nc(N3CCC(N)CC3)nc21`
## Output < 100 nM

## Input Give me measured IC50, please, for this molecule: `c1ccc(-n2cccn2)c(CNc2nc(N3CCNCC3)nc3c2ncn3C2CCCC2)c1`
## Output < 100 nM

====

experimental_system: CDK7/Cyclin H/MAT1 (Homo sapiens)
Construct: made in house; host or cells: insect cell
test: CDK kinase activity mobility shift assay (MSA)
Format: biochemical
condition: The CDK may be CDK7; mobility shift assay, 2 mM ATP, 3 nM CDK/Cyclin, 27° C. for 40 min; read-out: IC50 (CDK inhibition)
Counter-ions that a name gives are not always drawn.
measured_endpoint: IC50

Some solved cases for reference:
## Input Give me measured IC50, please, for this compound: `CC(C)n1cnc2c(NCc3ccccc3-n3ccc(C(=O)N4CCN(CCO)CC4)n3)nc(N3CCC(N)CC3)nc21`
## Output < 100 nM

## Input Give me measured IC50, please, for this compound: CC(C)n1cnc2c(NCc3c(F)cccc3-n3cccn3)nc(N3CCC(N)CC3)nc21 [Compound I-24, hydrochloride]
## Output < 100 nM

## Input Give me measured IC50, please, for this compound: `CC(C)n1cnc2c(NCc3ccccc3-c3cnn(C)c3)nc(N3CCC(N)CC3)nc21`
## Output < 100 nM

## Input Give me measured IC50, please, for this compound: `CC(C)n1cnc2c(NCc3ccccc3-n3cccn3)nc(N3CCC(N(C)C)CC3)nc21`
## Output < 100 nM

## Input Give me measured IC50, please, for this compound: `CC(C)n1cnc2c(NCc3ccccc3-n3ccc(C(C)(C)O)n3)nc(NC3CCNCC3)nc21`
## Output < 100 nM

## Input Give me measured IC50, please, for this compound: CCn1cnc2c(NCc3ccccc3-n3cccn3)nc(N3CCC(N)CC3)nc21 [Compound I-7, hydrochloride]
## Output < 100 nM

## Input Give me measured IC50, please, for this compound: `CNC1CCN(c2nc(NCc3ccccc3-n3cccn3)c3ncn(C(C)C)c3n2)CC1`
## Output < 100 nM

## Input Give me measured IC50, please, for this compound: `CC(C)n1nccc1-c1ncccc1CNc1nc(N2CCC(N)CC2)nc2c1ncn2C(C)C`
## Output < 100 nM

---
## Input Give me measured IC50, please, for this compound: `CC(C)n1cnc2c(NCc3ccccc3-n3ccc(C(C)(C)O)n3)nc(N3CCC(N)CC3)nc21`
## Output < 100 nM

## Input Give me measured IC50, please, for this compound: `CC(C)n1cnc2c(NCc3ccccc3-n3cccn3)nc(N[C@H]3CC[C@H](O)CC3)nc21`
## Output 500 to 1000 nM

## Input Give me measured IC50, please, for this compound: `CC(C)n1cnc2c(NCc3ccccc3-n3cccn3)nc(N3CCC(O)(Cn4cc(N)cn4)CC3)nc21`
## Output 100 to 500 nM

## Input Give me measured IC50, please, for this compound: CC(C)n1cnc2c(NCc3ccccc3-n3cccn3)nc(N3CCC(N)C3)nc21 (stereo not shown)
## Output 100 to 500 nM

## Input Give me measured IC50, please, for this compound: `CC(C)n1cnc2c(NCc3ccccc3-n3cccn3)nc(N3CCC(CN(C)C)CC3)nc21`
## Output 100 to 500 nM

## Input Give me measured IC50, please, for this compound: `CC(C)n1cnc2c(NCc3ccccc3-n3cccn3)nc(N3CCC(CO)CC3)nc21`
## Output 500 to 1000 nM

## Input Give me measured IC50, please, for this compound: `CC(C)n1cnc2c(NCc3ccccc3-n3cccn3)nc(N3CC[C@H](N)C3)nc21`
## Output < 100 nM

## Input Give me measured IC50, please, for this compound: CC(C)c1n[nH]c2c(NCc3ccccc3-n3cccn3)nc(N3CCC(N)CC3)nc12 [II-1, hydrochloride]
## Output < 100 nM
